assay: chemical genetic growth profiling, strain panel (AID 1159580);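 note: tested at 20 µM; growth read once vehicle control cultures reached saturation at 30 °C; 1 = growth at the plate median or of vehicle wells; lower values mean less growth of the strain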; conditions: S. cerevisiae deletion strains, growth OD, locus YJR075W, strain HOC1, hits give low values
Among all 5,500 compounds or so, about 2,000 (36%) were called active. Not shown: some 18% with an inconclusive outcome. The list shows a part of the results.
normalized growth overview

| compound | normalized growth |
| --- | --- |
| O=C(O)c1ccccc1O | 1.01 |
| Cc1ccc(Sc2ncccc2C(=O)NCC(=O)O)cc1 | 1.02 |
| O=C(O)C1=CC(=C(c2ccc(O)c(C(=O)O)c2)c2ccc(O)c(C(=O)O)c2)C=CC1=O | 0.974 |
| COC(=O)C[C@H]1C(C)(C)[C@@H](O)[C@@H]2CC3=C4CC(O)O[C@@H](c5ccoc5)[C@]4(C)CCC3[C@@]1(C)C2=O (some centres undefined) | 0.99 |
| CCOC(=O)c1cnc2n(c1=O)CCS2 | 1.01 |
| CCc1ccc2c(O)c3c(cc2c1C(=O)OC)C(=O)c1c(O)ccc(O)c1C3=O | 0.981 |
| COc1cc(C(=O)N2CCOCC2)cc(OC)c1OC | 1 |
| C/C=C(\C)C(=O)O[C@@H]1c2c(ccc3ccc(=O)oc23)OC(C)(C)[C@@H]1OC(C)=O | 0.993 |
| CC1Cc2ccccc2N1NC(=O)c1ccc(Cl)c(S(N)(=O)=O)c1 (centres undefined) | 1.01 |
